Assay: Pharmacokinetic studies, oral and i.v. (Example 2)
Assay type: in vivo, C57BL/6 mice
Conditions: female, C57BL/6, plasma; oral administration, 2 mg DHA-dFdC per mouse; read-out: AUC 0-24
endpoint.name: AUC(0-t) (µg·h/mL)

1) CC/C=C\C/C=C\C/C=C\C/C=C\C/C=C\C/C=C\CCC(=O)Nc1ccn(C2OC(CO)C(O)C2(F)F)c(=O)n1 (stereo not shown): 114

====

Assay: Pharmacokinetic studies, oral and i.v. (Example 2)
Type: in vivo, C57BL/6 mice
Details: female, C57BL/6, mouse, plasma, po, 2 mg, oral administration, 2 mg DHA-dFdC per mouse; read-out: Tmax
endpoint.name: Tmax (h)

1. CC/C=C\C/C=C\C/C=C\C/C=C\C/C=C\C/C=C\CCC(=O)Nc1ccn(C2OC(CO)C(O)C2(F)F)c(=O)n1 (stereo not shown): 1.7

====

Assay: Pharmacokinetic studies, oral and i.v. (Example 2)
Format: in vivo, C57BL/6 mice
Conditions: female, C57BL/6, plasma; oral administration, 2 mg DHA-dFdC per mouse
endpoint.name: Cmax (ng/mL)

1) CC/C=C\C/C=C\C/C=C\C/C=C\C/C=C\C/C=C\CCC(=O)Nc1ccn(C2OC(CO)C(O)C2(F)F)c(=O)n1 (stereo not shown): 10500
